# tgt: Bifunctional protein GlmU (Escherichia coli (strain K12))
# Sequence (P0ACC7 whole entry): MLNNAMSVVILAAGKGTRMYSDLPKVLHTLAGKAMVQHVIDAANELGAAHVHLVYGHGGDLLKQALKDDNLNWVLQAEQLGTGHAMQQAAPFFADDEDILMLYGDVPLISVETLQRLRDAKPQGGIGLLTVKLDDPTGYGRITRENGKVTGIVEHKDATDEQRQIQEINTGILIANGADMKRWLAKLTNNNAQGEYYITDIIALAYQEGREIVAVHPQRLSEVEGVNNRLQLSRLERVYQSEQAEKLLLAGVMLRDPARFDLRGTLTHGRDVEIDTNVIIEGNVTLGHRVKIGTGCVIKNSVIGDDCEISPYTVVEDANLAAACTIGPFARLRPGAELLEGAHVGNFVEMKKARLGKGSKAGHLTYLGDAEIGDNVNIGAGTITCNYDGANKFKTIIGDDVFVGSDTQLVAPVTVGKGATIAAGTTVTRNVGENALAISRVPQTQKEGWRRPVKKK
# run description: Competitive inhibition of Acetyltransferase activity of Escherichia coli BL21(DE3) GlmU in presence of AcCoA
Each record here notes measured Ki.
Write the figure, then the unit, nothing else.

Before answering, review these 2 worked examples.
> print(dat)
                              smiles.string  recorded.metric  measured.result
1  O=S(=O)(Nc1ccc(S(=O)(=O)c2ccc(-c3ccc(S(=O)(=O)c4ccc(NS(=O)(=O)c5ccc(Cl)cc5)c(Cl)c4)cc3)cc2)cc1Cl)c1ccc(Cl)cc1               Ki           404 nM
2  O=C(CSc1nnc(SCC(=O)NCCSCc2ccco2)s1)NCCSCc1ccco1               Ki            23 nM

In the following, a different compound is considered.
## Task // returns reported Ki for input Nc1ccc(Nc2ccc(N)cc2S(=O)(=O)O)cc1
## Result 17 nM
